The measurements presented in this section are drawn from paper PMC5761851.

- Experimental system: ROCK-II (Homo sapiens)
- Construct: purchased Eurofins Pharma Discovery Services (KinaseProfiler; Cerep BioPrint panel)
- Sequence (O75116 whole entry): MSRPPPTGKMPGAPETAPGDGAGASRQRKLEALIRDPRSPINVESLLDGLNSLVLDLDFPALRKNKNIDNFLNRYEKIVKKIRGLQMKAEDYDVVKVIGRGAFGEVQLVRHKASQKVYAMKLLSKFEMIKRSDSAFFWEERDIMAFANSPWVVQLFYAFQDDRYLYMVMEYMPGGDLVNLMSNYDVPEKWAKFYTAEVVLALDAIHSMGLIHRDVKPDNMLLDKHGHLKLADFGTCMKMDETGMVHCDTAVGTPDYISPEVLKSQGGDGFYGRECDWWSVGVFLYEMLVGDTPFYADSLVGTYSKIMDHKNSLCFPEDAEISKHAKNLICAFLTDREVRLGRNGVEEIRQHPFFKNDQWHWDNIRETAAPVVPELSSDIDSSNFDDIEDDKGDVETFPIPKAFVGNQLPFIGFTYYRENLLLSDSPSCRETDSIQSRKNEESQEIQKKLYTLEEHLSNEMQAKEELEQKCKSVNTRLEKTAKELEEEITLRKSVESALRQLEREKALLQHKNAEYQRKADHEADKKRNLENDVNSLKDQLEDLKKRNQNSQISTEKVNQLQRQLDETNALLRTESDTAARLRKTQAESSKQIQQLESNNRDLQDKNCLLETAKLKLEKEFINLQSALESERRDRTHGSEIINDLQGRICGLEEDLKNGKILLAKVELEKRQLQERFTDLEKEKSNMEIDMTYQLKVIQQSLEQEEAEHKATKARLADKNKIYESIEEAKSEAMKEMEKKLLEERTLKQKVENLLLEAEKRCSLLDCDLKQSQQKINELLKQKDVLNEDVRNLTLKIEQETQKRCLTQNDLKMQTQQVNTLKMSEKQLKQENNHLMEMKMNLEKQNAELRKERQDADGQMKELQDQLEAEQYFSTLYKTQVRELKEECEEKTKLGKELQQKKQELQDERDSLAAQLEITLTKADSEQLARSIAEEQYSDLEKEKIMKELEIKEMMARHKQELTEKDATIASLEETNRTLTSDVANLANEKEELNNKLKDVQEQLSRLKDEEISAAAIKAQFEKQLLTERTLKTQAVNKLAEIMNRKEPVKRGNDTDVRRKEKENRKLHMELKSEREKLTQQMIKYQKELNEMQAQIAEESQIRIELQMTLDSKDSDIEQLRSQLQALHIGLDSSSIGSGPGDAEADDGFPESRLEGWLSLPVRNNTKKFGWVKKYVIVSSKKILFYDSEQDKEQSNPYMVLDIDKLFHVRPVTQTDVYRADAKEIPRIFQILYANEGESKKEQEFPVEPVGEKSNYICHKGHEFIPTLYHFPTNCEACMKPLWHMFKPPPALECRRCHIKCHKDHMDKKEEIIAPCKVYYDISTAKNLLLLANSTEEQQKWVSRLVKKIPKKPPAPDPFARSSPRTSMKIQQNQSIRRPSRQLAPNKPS
- Assay overview: kinase selectivity panel
- Type: biochemical
- Recorded conditions: read-out: percentage of control activity (POC), ROCK-II
- Method: Kinase selectivity was evaluated at Eurofins Pharma Discovery Services using a selection of 125 representative kinases tested at a concentration of 10 μM in duplicate (S3 Table). IC50 values for selected activities were further characterized at 9 duplicate concentrations. DNA-PK activity was determined at the SelectScreen® Biochemical kinase Profiling Service of Thermo Fisher Scientific.
Hi! Could you tag entries with remaining activity at 10 µM below 90% as y, and those at or above as n? Much appreciated.

CC(C)(C)N1CCC(c2cc(-c3ccc(F)cc3Cl)c3cc[n+]([O-])c(-c4c(Cl)cccc4Cl)c3n2)CC1 :: n

Ask: Does the reported remaining activity at 10 µM of Cn1cc(-c2cccc(-c3nc(C(=O)NC4C5CC6CC4CC(O)(C6)C5)c(N)nc3N)c2)cn1 (centres unmarked) stay below 90%?
Result: y

Ask: Check COc1c(NC(=O)c2ccc(C)c(-c3nnc4c(NCC(C)(C)C)nccn34)c2)cc(C(C)(C)C)cc1NS(C)(=O)=O [compound 7, reference compound] too.
Result: n

Ask: Check Cc1ccc(C(=O)NCC2CC2)cc1-c1ccc2c(c1)NC(=O)C21CCCC1 too.
Result: n

Ask: Check CS(=O)(=O)N1CCN(c2ccc(Nc3ncc(C(N)=O)c(NC4CC4)n3)cc2)CC1 too.
Result: y
